Target: recombinant human 17β-HSD1 (Homo sapiens)
Construct: made in house; host or cells: Sd9 (Sf9) insect cells, baculovirus (Bac to Bac Expression System)
Sequence (P14061 1-328): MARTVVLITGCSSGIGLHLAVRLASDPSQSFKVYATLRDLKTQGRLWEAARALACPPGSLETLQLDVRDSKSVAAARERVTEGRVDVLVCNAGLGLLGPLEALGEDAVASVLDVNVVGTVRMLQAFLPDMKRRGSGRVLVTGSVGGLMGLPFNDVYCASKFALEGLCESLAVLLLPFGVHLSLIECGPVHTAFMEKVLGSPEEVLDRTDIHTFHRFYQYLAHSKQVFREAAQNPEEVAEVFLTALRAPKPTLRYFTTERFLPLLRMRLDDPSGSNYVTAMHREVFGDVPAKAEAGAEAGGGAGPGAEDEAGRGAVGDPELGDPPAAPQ
Assay: Inhibition of recombinant human 17β-HSD1
Format: biochemical
Conditions: inhibitor 100 nM; 30 nM estrone, 1 mM NADPH, 30 min RT
Would you mind telling me the reported inhibition at 0.1 µM of each entry?
Numbers only, in %.

Worked examples follow.
Compound	Units Label	Data Value
C[C@]12CCC3c4ccc(Cl)cc4CCC3C1[C@H](CCC(=O)Nc1cccnn1)C/C2=N\O (stereo partly shown)	%	20
Cc1cc(NC(=O)CC[C@@H]2C/C(=N\O)[C@@]3(C)CCC4c5ccccc5CCC4C23)no1 (stereo partly shown)	%	33
C[C@]12CCC3c4ccc(Cl)cc4CCC3C1[C@H](CCC(=O)Nc1ccc(F)cn1)C/C2=N\O (stereo partly shown)	%	60

Attention now turns to another entry.
Form field: reported inhibition at 0.1 µM of CCN(CC)C(=O)CC[C@@H]1C/C(=N\O)[C@@]2(C)CCC3c4ccc(Cl)cc4CCC3C12 (stereo partly shown)
64

---

biological target: recombinant human 17β-HSD2 (Homo sapiens, UniProt P37059); construct: made in house; host or cells: Sd9 (Sf9) insect cells, baculovirus (Bac to Bac Expression System); assay: Inhibition of recombinant human 17β-HSD2; type: biochemical; conditions: inhibitor 1 μM; 50 nM estradiol, 1 mM NADH, 30 min RT
Sequence (P37059 whole entry): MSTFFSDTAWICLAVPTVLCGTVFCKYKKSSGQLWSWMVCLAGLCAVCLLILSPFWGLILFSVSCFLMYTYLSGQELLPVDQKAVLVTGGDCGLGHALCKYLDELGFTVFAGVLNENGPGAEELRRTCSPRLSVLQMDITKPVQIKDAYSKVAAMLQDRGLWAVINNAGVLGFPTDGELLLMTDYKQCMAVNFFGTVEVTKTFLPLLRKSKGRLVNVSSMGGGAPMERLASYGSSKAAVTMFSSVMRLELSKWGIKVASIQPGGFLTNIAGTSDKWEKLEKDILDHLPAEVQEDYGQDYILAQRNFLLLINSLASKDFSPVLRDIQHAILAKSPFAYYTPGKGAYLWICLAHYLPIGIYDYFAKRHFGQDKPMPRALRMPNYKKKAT
Measured Parameter: inhibition at 1 µM

Worked examples follow.
Molecule	inhibition at 1 µM
C[C@]12CCC3c4ccc(Cl)cc4CCC3C1[C@H](CCC(=O)Nc1ccc(F)cn1)C/C2=N\O (stereo partly shown)	18%
CN(C)C(=O)c1ccc(NC(=O)CC[C@@H]2C/C(=N\O)[C@@]3(C)CCC4c5cccc(F)c5CCC4C23)nc1 (stereo partly shown)	5%

Batch lookup, inhibition at 1 µM per entry.
1. Cc1cccnc1NC(=O)CC[C@@H]1C/C(=N\O)[C@@]2(C)CCC3c4ccc(Cl)cc4CCC3C12 (stereo partly shown)
2. C[C@]12CCC3c4ccc(Cl)cc4CCC3C1[C@H](CCC(=O)Nc1ccc(N3CCOCC3)cn1)C/C2=N\O (stereo partly shown)
3. CC(C)c1ccc(NC(=O)CC[C@@H]2C/C(=N\O)[C@@]3(C)CCC4c5cccc(F)c5CCC4C23)nc1 (stereo partly shown)
4. C[C@]12CCC3c4ccc(F)cc4CCC3C1[C@H](CCC(=O)Nc1ncc(F)cc1F)C/C2=N\O (stereo partly shown)
5. C[C@]12CCC3c4ccc(Cl)cc4CCC3C1[C@H](CCC(=O)NC1=NCCS1)C/C2=N\O (stereo partly shown)

1: 2%; 2: 1%; 3: 7%; 4: 2%; 5: 0%

---

biological target: recombinant human 17β-HSD2 (Homo sapiens, UniProt P37059); construct: made in house; host or cells: Sd9 (Sf9) insect cells, baculovirus (Bac to Bac Expression System); test: Inhibition of recombinant human 17β-HSD2; format: biochemical; conditions: inhibitor 1 μM; 50 nM estradiol, 1 mM NADH, 30 min RT
Would you mind telling me the reported inhibition at 1 µM of each entry?
Answers are plain numbers, in %.

Compound	inhibition at 1 µM / %
Cc1ccc(NC(=O)CC[C@@H]2C/C(=N\O)[C@@]3(C)CCC4c5ccc(Cl)cc5CCC4C23)nn1 (stereo partly shown) [Compound 76]	4
C[C@]12CCC3c4ccccc4CCC3C1[C@H](CCC(=O)Nc1ccccn1)C/C2=N\O (stereo partly shown) [Compound 104]	-13
C[C@]12CCC3c4cccc(F)c4CCC3C1[C@H](CCC(=O)Nc1ccc(F)cn1)C/C2=N\O (stereo partly shown) [Compound 8]	2

Batch lookup, inhibition at 1 µM per entry.
1. C[C@]12CCC3c4ccccc4CCC3C1[C@H](CCC(=O)Nc1ncccc1F)C/C2=N\O (stereo partly shown) [Compound 160]
2. C[C@]12CCC3c4cccc(F)c4CCC3C1[C@H](CCC(=O)NC1COC1)C/C2=N\O (stereo partly shown) [Compound 10]
3. C[C@]12CCC3c4ccccc4CCC3C1[C@H](CCC(=O)Nc1ncccc1O)C/C2=N\O (stereo partly shown) [Compound 102]

5
5
20

Form field: reported inhibition at 1 µM of C[C@]12CCC3c4ccc(Cl)cc4CCC3C1[C@H](CCC(=O)Nc1cc3c([nH]c1=O)CCCC3)C/C2=N\O (stereo partly shown) [Compound 174]
12

---

molecular target: recombinant human 17β-HSD1 (Homo sapiens, UniProt P14061); construct: made in house; host or cells: Sd9 (Sf9) insect cells, baculovirus (Bac to Bac Expression System); assay: Inhibition of recombinant human 17β-HSD1; format: biochemical; conditions: inhibitor 100 nM; 30 nM estrone, 1 mM NADPH, 30 min RT
Measured Parameter: inhibition at 0.1 µM (%)
One number for each entry, in %.

Compound	inhibition at 0.1 µM, %
C[C@]12CCC3c4cccc(F)c4CCC3C1[C@H](CCC(=O)Nc1cccnn1)C/C2=N\O (stereo partly drawn)	80

Batch lookup, inhibition at 0.1 µM per entry.
1. C[C@]12CCC3c4cccc(F)c4CCC3C1[C@H](CCC(=O)NC1CCCCC1)C/C2=N\O (stereo partly drawn)
2. C[C@]12CCC3c4ccccc4CCC3C1[C@H](CCC(=O)Nc1ncccc1F)C/C2=N\O (stereo partly drawn)
3. C[C@]12CCC3c4cccc(F)c4CCC3C1[C@H](CCC(=O)Nc1ccccn1)C/C2=N\O (stereo partly drawn)

1: 86; 2: 66; 3: 89

Batch lookup, inhibition at 0.1 µM per entry.
1. CN(C(=O)CC[C@@H]1C/C(=N\O)[C@@]2(C)CCC3c4ccc(F)cc4CCC3C12)C1COC1 (stereo partly drawn)
2. C[C@]12CCC3c4cccc(F)c4CCC3C1[C@H](CCC(=O)Nc1ncccc1F)C/C2=N\O (stereo partly drawn)

1: 33; 2: 93

Batch lookup, inhibition at 0.1 µM per entry.
1. CCN(CC)C(=O)CC[C@@H]1C/C(=N\O)[C@@]2(C)CCC3c4cccc(F)c4CCC3C12 (stereo partly drawn)
2. Cc1cc(NC(=O)CC[C@@H]2C/C(=N\O)[C@@]3(C)CCC4c5ccc(Cl)cc5CCC4C23)no1 (stereo partly drawn)

1: 85; 2: 47

Batch lookup, inhibition at 0.1 µM per entry.
1. C[C@]12CCC3c4ccccc4CCC3C1[C@H](CCC(=O)Nc1ccc(C#N)cn1)C/C2=N\O (stereo partly drawn)
2. C[C@]12CCC3c4cccc(F)c4CCC3C1[C@H](CCC(=O)N1CCOCC1)C/C2=N\O (stereo partly drawn)
3. COc1ccnc(NC(=O)CC[C@@H]2C/C(=N\O)[C@@]3(C)CCC4c5cccc(F)c5CCC4C23)c1 (stereo partly drawn)
4. C[C@]12CCC3c4ccccc4CCC3C1[C@H](CCC(=O)Nc1ccc(F)cn1)C/C2=N\O (stereo partly drawn)
5. Cc1ccc(NC(=O)CC[C@@H]2C/C(=N\O)[C@@]3(C)CCC4c5ccc(F)cc5CCC4C23)nn1 (stereo partly drawn)

[51, 39, 87, 60, 35]

Batch lookup, inhibition at 0.1 µM per entry.
1. C[C@]12CCC3c4ccc(Cl)cc4CCC3C1[C@H](CCC(=O)Nc1ccc(N3CCOCC3)cn1)C/C2=N\O (stereo partly drawn)
2. C[C@]12CCC3c4ccc(F)cc4CCC3C1[C@H](CCC(=O)Nc1ccc(N3CCOCC3)cn1)C/C2=N\O (stereo partly drawn)

76
83

---

Would you mind telling me the reported Rabbit placenta inhibition % @100 nM of each entry?
system: HSD1 enzyme that is expressed in rabbit placenta tissue; experiment: Inhibition of E1 to E2 conversion in rabbit placenta tissue homogenate; assay type: biochemical; conditions: inhibitor 100 nM, 30 nM estrone, 30 min
Numbers only, in %.

Worked examples follow.
Compound	Experimental System	Rabbit placenta inhibition % @100 nM (%)
C[C@]12CCC3c4ccc(Cl)cc4CCC3C1[C@H](CCC(=O)Nc1ccc(C#N)cn1)C/C2=N\O (stereo partly shown) [Compound 72]	HSD1 enzyme that is expressed in rabbit placenta tissue	26
COc1ccnc(NC(=O)CC[C@@H]2C/C(=N\O)[C@@]3(C)CCC4c5ccccc5CCC4C23)c1 (stereo partly shown) [Compound 106]	HSD1 enzyme that is expressed in rabbit placenta tissue	5
C[C@]12CCC3c4ccc(F)cc4CCC3C1[C@H](CCC(=O)Nc1ccc(N3CCOCC3)cn1)C/C2=N\O (stereo partly shown) [Compound 154]	HSD1 enzyme that is expressed in rabbit placenta tissue	38
C[C@]12CCC3c4cccc(F)c4CCC3C1[C@H](CCC(=O)N1CCC3(CCOCC3)C1)C/C2=N\O (stereo partly shown) [Compound 128]	HSD1 enzyme that is expressed in rabbit placenta tissue	2
COc1ccnc(NC(=O)CC[C@@H]2C/C(=N\O)[C@@]3(C)CCC4c5cccc(F)c5CCC4C23)c1 (stereo partly shown) [Compound 132]	HSD1 enzyme that is expressed in rabbit placenta tissue	27
CN(C)C(=O)c1ccc(NC(=O)CC[C@@H]2C/C(=N\O)[C@@]3(C)CCC4c5ccccc5CCC4C23)nc1 (stereo partly shown) [Compound 92]	HSD1 enzyme that is expressed in rabbit placenta tissue	15

Batch lookup, Rabbit placenta inhibition % @100 nM per entry.
1. Cc1cnc(NC(=O)CC[C@@H]2C/C(=N\O)[C@@]3(C)CCC4c5ccc(Cl)cc5CCC4C23)o1 (stereo partly shown) [Compound 64]
2. COc1ccnc(NC(=O)CC[C@@H]2C/C(=N\O)[C@@]3(C)CCC4c5ccc(Cl)cc5CCC4C23)c1 (stereo partly shown) [Compound 56]
3. CCN(CC)C(=O)CC[C@@H]1C/C(=N\O)[C@@]2(C)CCC3c4cccc(F)c4CCC3C12 (stereo partly shown) [Compound 24]
4. COc1ccc(NC(=O)CC[C@@H]2C/C(=N\O)[C@@]3(C)CCC4c5cccc(F)c5CCC4C23)nc1 (stereo partly shown) [Compound 6]

1: 5; 2: 0; 3: 18; 4: 79
